# Test system: MV4-11
# testName: Cytotoxicity against FLT3-dependent human MV4-11 cells after 72 hrs by MTT assay
# Format: functional, cell-based
# measurementContext: MV4-11, 72 h
measuredProperty: pIC50
Note on units: pIC50 is unitless, being -log10 of a concentration expressed in mol/L.

structureNotation	measuredProperty	experimentalResult
COc1cc2ncnc(Sc3nc(C)c(CC(=O)Nc4cc(Cl)cc(Cl)c4)s3)c2cc1OC	pIC50	5.85
COc1cc2ncnc(Sc3nccs3)c2cc1OC	pIC50	5.94
COCCOc1cc2ncnc(Sc3nc(C)c(CC(=O)Nc4cccc(Cl)c4)s3)c2cc1OCCOC	pIC50	6.68
COc1cc2ncnc(Sc3nc(C)c(CC(=O)Nc4cccc(Cl)c4)s3)c2cc1OC	pIC50	6.35

Entry `C#Cc1cccc(NC(=O)Nc2nnc(Sc3ncnc4cc(OCCCN5CCOCC5)ccc34)s2)c1` under MV4-11 had pIC50 of 9.52

Entry `COCCOc1cc2ncnc(Sc3nnc(NC(=O)Nc4ccc(C)cc4)s3)c2cc1OCCOC` under MV4-11 had pIC50 of 7.66

Entry `COc1cc2c(Sc3nccs3)ncnc2cc1OCCCN1CCOCC1` under MV4-11 had pIC50 of 5.94

Entry `COc1cc2ncnc(Sc3nc(C)c(CC(=O)Nc4cccc(C(F)(F)F)c4)s3)c2cc1OC` under MV4-11 had pIC50 of 7.70

Entry `C#Cc1cccc(NC(=O)Nc2nnc(Sc3ncnc4cc(OCCOC)c(OCCOC)cc34)s2)c1` under MV4-11 had pIC50 of 8.30

Entry `COc1cc2ncnc(Sc3nccs3)c2cc1OCCN1CCCC1` under MV4-11 had pIC50 of 5.91

Entry `COCCOc1cc2ncnc(Sc3nc(C)c(CC(=O)NC4CC4)s3)c2cc1OCCOC` under MV4-11 had pIC50 of 5.62

Entry `COc1cc2ncnc(Sc3nncs3)c2cc1OC` under MV4-11 had pIC50 of 5.92

Entry `COCCOc1cc2ncnc(Sc3nnc(NC(=O)Nc4cccc(Br)c4)s3)c2cc1OCCOC` under MV4-11 had pIC50 of 7.66

Entry `COCCOc1cc2ncnc(Sc3nc(CC(=O)Nc4cccc(Cl)c4)cs3)c2cc1OCCOC` under MV4-11 had pIC50 of 5.49

Entry `COc1cc2c(N3CCN(C(=O)Nc4ccc(OC(C)C)cc4)CC3)ncnc2cc1OCCCN1CCCCC1` under MV4-11 had pIC50 of 7.26
